- Tested on: Hepatitis C virus
- protocol-description: Antiviral activity against HCV
- Type: functional, organism-based, Hepacivirus hominis
measurement-name: pEC50
Reminder that pEC50 is minus the log10 of a molar concentration.

The value of pEC50 recorded for "FC(F)(F)c1cc(C(F)(F)F)c2ccc3nc(-c4nnco4)cn3c2n1" when tested on Hepatitis C virus reads 6.69

###

- protocol-description: Elimination half life in Wistar rat at 100 mg/kg, po
- Type: ADME, organism-based
- study-conditions: in vivo, read-out: beta t1/2 (converted)
measurement-name: half-life (h)
# unit: h | format: bare number

Briefly, half-life measured for "NCCNC(=O)c1cn2c(ccc3c(C(F)(F)F)cc(C(F)(F)F)nc32)n1" : 2.93

###

- protocol-description: Cytotoxicity against human HuH7 cells
- Format: cell-based, Huh-7
measurement-name: CC50

Briefly, CC50 measured for "NCCNC(=O)c1cn2c(ccc3c(C(F)(F)F)cc(C(F)(F)F)nc32)n1" : > 20 µM

###

- protocol-description: Cytotoxicity against human HepAD38 cells
- Format: cell-based
measurement-name: CC50

Briefly, CC50 measured for "NCCNC(=O)c1cn2c(ccc3c(C(F)(F)F)cc(C(F)(F)F)nc32)n1" : > 20 µM

###

- Tested on: Hepatitis C virus
- protocol-description: Antiviral activity against HCV genotype 1b Con-1 infected in human HuH7 cells after 72 hrs by luciferase based replicon assay
- Type: functional, organism-based
- study-conditions: Hepacivirus hominis; isolate Con1; Huh-7
Activity calls are given as the source filed them. The calls are words filed in the database; no cut-off is given here.
Log the outcome using a class from active, inactive

Completed entries (count: 3):
molecule | label-value
NCCNC(=O)c1cn2c(ccc3c(C(F)(F)F)cc(C(F)(F)F)nc32)n1 | inactive
O=C(c1cn2c(ccc3c(C(F)(F)F)cc(C(F)(F)F)nc32)n1)N1CCNCC1 | inactive
CC1CN(C(=O)c2cn3c(ccc4c(C(F)(F)F)cc(C(F)(F)F)nc43)n2)CCN1 (stereo not given) | inactive

Record request — test call for "CN(C)CCNC(=O)c1cn2c(ccc3c(C(F)(F)F)cc(C(F)(F)F)nc32)n1"
inactive

Record request — test call for "CNCCN(C)C(=O)c1cn2c(ccc3c(C(F)(F)F)cc(C(F)(F)F)nc32)n1"
inactive

Record request — test call for "CN1CCN(C(=O)c2cn3c(ccc4c(C(F)(F)F)cc(C(F)(F)F)nc43)n2)CC1"
inactive

Record request — test call for "NC1CCN(C(=O)c2cn3c(ccc4c(C(F)(F)F)cc(C(F)(F)F)nc43)n2)CC1"
inactive

Record request — test call for NC1CCN(C(=O)c2cn3c(ccc4c(C(F)(F)F)cc(C(F)(F)F)nc43)n2)C1 (stereo not given)
inactive

Record request — test call for NC1CCCCC1NC(=O)c1cn2c(ccc3c(C(F)(F)F)cc(C(F)(F)F)nc32)n1 (stereo not given)
inactive

Record request — test call for "FC(F)(F)c1cc(C(F)(F)F)c2ccc3nc(-c4nnco4)cn3c2n1"
active

###

- protocol-description: AUC ( 0 to 24 hrs) in Wistar rat at 100 mg/kg, po
- Type: ADME, organism-based
- Parameters: time < 24 hr, dose 100 mg/kg, route oral
- study-conditions: in vivo
measurement-name: AUC(0-t) at 24 h (µM·h)
# unit: µM·h | format: bare number

Briefly, AUC(0-t) at 24 h measured for "NCCNC(=O)c1cn2c(ccc3c(C(F)(F)F)cc(C(F)(F)F)nc32)n1" : 19

###

- protocol-description: Cytotoxicity against human RD cells
- Type: cell-based
measurement-name: CC50

Briefly, CC50 measured for "NCCNC(=O)c1cn2c(ccc3c(C(F)(F)F)cc(C(F)(F)F)nc32)n1" : > 20 µM

###

- protocol-description: Tmax in Wistar rat at 100 mg/kg, po
- Type: ADME, organism-based
- study-conditions: in vivo
measurement-name: Tmax (h)
# unit: h | format: bare number

Briefly, Tmax measured for "NCCNC(=O)c1cn2c(ccc3c(C(F)(F)F)cc(C(F)(F)F)nc32)n1" : 2.17

###

- protocol-description: Cmax in Wistar rat at 100 mg/kg, po
- Assay type: ADME, organism-based
- Design: dose 100 mg/kg, route oral
- study-conditions: in vivo
measurement-name: Cmax
State the value with its unit after it.

Briefly, Cmax measured for "NCCNC(=O)c1cn2c(ccc3c(C(F)(F)F)cc(C(F)(F)F)nc32)n1" : 2050 nM
